- measured-on: T1, DmAgo2 (Drosophila melanogaster, UniProt Q9VUQ5 403-1214)
- T1 sequence: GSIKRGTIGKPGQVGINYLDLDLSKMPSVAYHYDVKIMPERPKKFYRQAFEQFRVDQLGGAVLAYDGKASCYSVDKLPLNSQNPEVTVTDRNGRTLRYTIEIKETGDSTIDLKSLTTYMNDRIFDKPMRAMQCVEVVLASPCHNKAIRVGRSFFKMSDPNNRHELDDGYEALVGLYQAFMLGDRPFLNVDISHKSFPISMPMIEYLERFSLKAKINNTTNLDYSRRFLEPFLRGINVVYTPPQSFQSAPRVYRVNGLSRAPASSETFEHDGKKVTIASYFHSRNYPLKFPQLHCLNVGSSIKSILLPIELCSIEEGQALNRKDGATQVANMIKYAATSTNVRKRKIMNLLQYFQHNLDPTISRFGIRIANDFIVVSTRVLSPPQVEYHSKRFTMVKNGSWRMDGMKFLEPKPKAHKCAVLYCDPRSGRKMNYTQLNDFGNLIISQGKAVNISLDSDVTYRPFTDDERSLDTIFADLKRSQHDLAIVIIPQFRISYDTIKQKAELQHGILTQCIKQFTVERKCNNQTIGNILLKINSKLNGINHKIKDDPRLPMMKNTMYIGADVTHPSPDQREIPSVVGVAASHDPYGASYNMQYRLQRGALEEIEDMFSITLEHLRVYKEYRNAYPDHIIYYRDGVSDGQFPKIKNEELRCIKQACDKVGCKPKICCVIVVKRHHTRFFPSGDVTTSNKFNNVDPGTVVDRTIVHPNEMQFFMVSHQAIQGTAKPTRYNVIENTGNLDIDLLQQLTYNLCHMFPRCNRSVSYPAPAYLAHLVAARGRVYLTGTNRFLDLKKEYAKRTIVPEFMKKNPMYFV
- assay-info: competitive double filter binding
recorded-metric: Kd (nM)
Give bare numbers, in nM.

For UGAGAUCAUUUUGAAAGCUGAUU (ssRNA, 5' phosphate on labeled RNA (PNK)) [bantam miRNA 23 nt] , what is its reported Kd?
10.7
